# Tested target: USP7 catalytic domain (Homo sapiens, UniProt Q93009)
# Sequence (Q93009 214-521 limits assumed): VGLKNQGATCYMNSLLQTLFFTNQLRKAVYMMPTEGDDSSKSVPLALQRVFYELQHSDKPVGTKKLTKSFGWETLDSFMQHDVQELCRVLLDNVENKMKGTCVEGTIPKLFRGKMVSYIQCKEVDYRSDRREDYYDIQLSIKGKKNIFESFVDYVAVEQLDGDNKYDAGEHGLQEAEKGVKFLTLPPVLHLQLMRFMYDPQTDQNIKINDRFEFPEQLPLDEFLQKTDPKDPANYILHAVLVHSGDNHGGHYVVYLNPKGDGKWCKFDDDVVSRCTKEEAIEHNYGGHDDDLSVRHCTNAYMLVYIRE
# Experimental details: USP7 inhibition with isolated USP7 catalytic domain using Ub-AMC as a substrate

Smiles str: O=C(C[C@@H](C(F)F)n1ccc(F)n1)N1CCC(O)(Cn2cnc3c(cnn3-c3ccc(F)cc3)c2=O)CC1
IC50 / µM: 0.032

Every entry's value here was drawn from paper PMC9710854.
